For each of the compounds below, state its Bliss excess.
# System: PANC-03-27 (Pancreatic Carcinoma);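 also: after 72 h of two-drug dosing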
# Protocol summary: Bliss excess, mean over the matrix (fraction); higher = more synergy

Check out these entries, answers already filled in.
| Compound | Target under test | Bliss excess |
| --- | --- | --- |
| C[C@@H](Nc1cc(F)cc(F)c1)c1cc(C(=O)N(C)C)cc2c(=O)cc(N3CCOCC3)oc12 [AZD8186] + C1CN(CCC1(C(=O)N[C@@H](CCO)C2=CC=C(C=C2)Cl)N)C3=NC=NC4=C3C=CN4 [AZD5363] (first compound max 10 µM, 7x7, partner max 10 µM) | PANC-03-27 (Pancreatic Carcinoma) | -0.0239 |
| C[C@@H](Nc1cc(F)cc(F)c1)c1cc(C(=O)N(C)C)cc2c(=O)cc(N3CCOCC3)oc12 [AZD8186] + CC(=O)c1c(C)c2cnc(Nc3ccc(N4CCNCC4)cn3)nc2n(C2CCCC2)c1=O [Palbociclib] (first compound max 10 µM, 7x7, partner max 10 µM) | PANC-03-27 (Pancreatic Carcinoma) | 0.0614 |
| CN(C)CCCOc1ccc(-c2ccc3ncc4c(c3c2)n(C2CCOCC2)c(=O)n4C)cn1 [AZD0156] + C=CCn1c(=O)c2cnc(Nc3ccc(N4CCN(C)CC4)cc3)nc2n1-c1cccc(C(C)(C)O)n1 [AZD1775] (first compound max 1 µM, partner max 1 µM) | PANC-03-27 (Pancreatic Carcinoma) | -0.063 |
| CC1(C)CCC(CN2CCN(c3ccc(C(=O)NS(=O)(=O)c4ccc(NCC5CCOCC5)c([N+](=O)[O-])c4)c(Oc4cnc5[nH]ccc5c4)c3)CC2)=C(c2ccc(Cl)cc2)C1 [Venetoclax] + Cc1cc2ncnn2cc1Nc1ncc2c(n1)n(C1CCOCC1)c(=O)n2C [AZD7648] (first compound max 1 µM, 7x7, partner max 10 µM) | PANC-03-27 (Pancreatic Carcinoma) | -0.043 |
| COc1nnc2ccc(N3CCC(c4ccc(OCCN5CCN(C)C(=O)[C@H]5C)cc4)CC3)nn12 [AZD5153] + C=CCn1c(=O)c2cnc(Nc3ccc(N4CCN(C)CC4)cc3)nc2n1-c1cccc(C(C)(C)O)n1 [AZD1775] (first compound max 1 µM, partner max 1 µM) | PANC-03-27 (Pancreatic Carcinoma) | -0.152 |
| Cc1nc(-c2cn3c(n2)-c2ccc(-c4cnn(C(C)(C)C(N)=O)c4)cc2OCC3)n(C(C)C)n1 [Taselisib] + O=C(Nc1ccc2[nH]nc(-c3ccncc3)c2c1)[C@@H]1CCN(CC(=O)N2CCN(c3ccc(-c4ncccn4)cc3)CC2)C1 [SCH772984] (first compound max 10 µM, 7x7, partner max 5 µM) | PANC-03-27 (Pancreatic Carcinoma) | 0.0848 |

Attention now shifts to the item below.
Req: Answer with the recorded Bliss excess of CN(CCO)CC[C@H](CSc1ccccc1)Nc1ccc(S(=O)(=O)NC(=O)c2ccc(N3CCC([C@@H](O)c4ccccc4-c4ccc(Cl)cc4)CC3)cc2)cc1S(=O)(=O)C(F)(F)F [AZD4320] + C[C@@H]1COCCN1C2=NC(=NC(=C2)C3(CC3)[S@](=N)(=O)C)C4=C5C=CNC5=NC=C4 [AZD6738] (first compound max 1 µM, 7x7, partner max 10 µM) only.
Resp: -0.0392
